# melting point per entry

Record excerpt, results attached:
| compound | measurement |
| --- | --- |
| OC/C=C/c1ccc(Cc2cccnc2)cc1 | 81 to 82 °C |
| CC(=O)OS(=O)(=O)c1ccc(C)cc1 | 56 to 60 °C |
| CC(C)Oc1ccc(-n2c(C(=O)NC(C)(C)C(=O)O)c(Cl)c3cc(Oc4ccc(C(F)(F)F)cc4)ccc32)cc1 | 187 to 188 °C |
| COc1cc(CN2CCN(c3ccccc3C)CC2)cc(OC)c1OC | 89 °C |

Exercise: Return reported melting point. Input compound: "O=C(Cl)N1CCN(c2ccccc2)CC1"
Key: 79.5 °C

Exercise: Return reported melting point. Input compound: "CCCCCCCCCCCC(=O)c1ccc(CCOC(C)=O)cc1"
Key: 32 to 33 °C

Exercise: Return reported melting point. Input compound: Cc1nc(-n2cnn(CC3CC3(F)F)c2=O)sc1C(N)=O (configuration not stated)
Key: 273 to 275 °C

Exercise: Return reported melting point. Input compound: "O=[N+]([O-])C=Cc1c[nH]c2ccc(-c3ccc4[nH]cnc4c3)cc12"
Key: > 280 °C

Exercise: Return reported melting point. Input compound: "Cc1oncc1C(=O)c1ccc(Cl)cc1"
Key: 65 to 66 °C

---

measured.quantity: melting point

Record excerpt, results attached:
| compound | measured.quantity | measurement |
| --- | --- | --- |
| Cc1c(-c2ccc(OCc3ccccc3)cc2)n(Cc2ccc(OCCCN3CCCCC3)cc2)c2ccc(OCc3ccccc3)cc12 | melting point | 104 to 106 °C |
| Cc1cc(O)cc2c1N(C)C1N(C)CCC21C (stereo unspecified) | melting point | 146 to 148 °C |
| CCCCCCCC/C=C\CCCCCCCC(=O)CCCNC(=O)CCNC(=O)C1OC(C)(C)OCC1(C)C (stereo unspecified) | melting point | 45 to 47 °C |
| CN(C1CCN(Cc2ccsc2)CC1)S(=O)(=O)c1ccc(Nc2nccc(Nc3ccc(F)cc3)n2)cc1 | melting point | 173 to 174 °C |

Exercise: Return reported melting point. Input compound: "N#Cc1ccsc1N=Cc1cccs1"
Key: 58 to 60 °C

Exercise: Return reported melting point. Input compound: COC(=O)C(C)c1ccc2c(c1)Cc1cc(OC)ccc1-2 (stereo unspecified)
Key: 98.5 to 100 °C

Exercise: Return reported melting point. Input compound: COC1(c2cc(F)cc(Sc3ccc(C(C)ONC(N)=O)cc3)c2)CCOCC1 (stereo unspecified)
Key: 84 to 85 °C

Exercise: Return reported melting point. Input compound: Cc1cc(C(=O)NCOCc2cccnc2)ncc1C(c1cc(F)ccc1F)S(=O)(=O)c1ccc(F)cc1 (stereo unspecified)
Key: 121 to 123 °C

---

# melting point per entry
Residues, ends and D or L forms follow the SMILES beside them. *: point of attachment. Boc = CC(C)(C)OC(=O)*

Record excerpt, results attached:
| molecule | measured.quantity | measurement |
| --- | --- | --- |
| CC(=O)N1CC(C)C(=O)N(C(C)=O)C1=O (stereo not drawn) | melting point | 130 to 131 °C |
| COc1ccc(Cn2cnc3c(-c4ccco4)nc([N+](=O)[O-])nc32)cc1 | melting point | 182 to 183 °C |
| Cc1nn(C)c2nc3n(c(=O)c12)CCS3 | melting point | 229 to 230 °C |
| CN(CC(=O)O)C(=S)c1cccc2c(Br)cccc12 | melting point | 181 °C |
| CC(=O)C(C#N)c1ccc(F)cc1 (stereo not drawn) | melting point | 77 to 83 °C |

Exercise: Return reported melting point. Input molecule: CC(C)CC(NC(=O)C(Cc1ccc(O)cc1)NC(=O)OC(C)(C)C)C(=O)NCC(=O)O (stereo not drawn) (Boc-Tyr-Leu-Gly-OH; configuration not given here)
Key: 189 to 190 °C

Exercise: Return reported melting point. Input molecule: "CCOC(=O)C(=[N+]=[N-])C(=O)c1cc(I)cnc1Cl"
Key: 84 to 85 °C

Exercise: Return reported melting point. Input molecule: "Clc1nc(Cl)nc(NNc2nc(Cl)nc(Cl)n2)n1"
Key: > 250 °C

Exercise: Return reported melting point. Input molecule: "COc1cc2c(=O)c(C(N)=O)c[nH]c2cc1F"
Key: > 300 °C

Exercise: Return reported melting point. Input molecule: O=c1cc(-c2ccccc2)oc2cc(OCC3CO3)ccc12 (stereo not drawn)
Key: 123 to 130 °C

Values compiled from a melting point compilation (Tetko et al.; mined from patent text by program, amines drawn as free bases though some values may be those of a salt).
